Target: ALCAT1 (Homo sapiens (Human), UniProt Q6UWP7)
Sequence (Q6UWP7 whole entry): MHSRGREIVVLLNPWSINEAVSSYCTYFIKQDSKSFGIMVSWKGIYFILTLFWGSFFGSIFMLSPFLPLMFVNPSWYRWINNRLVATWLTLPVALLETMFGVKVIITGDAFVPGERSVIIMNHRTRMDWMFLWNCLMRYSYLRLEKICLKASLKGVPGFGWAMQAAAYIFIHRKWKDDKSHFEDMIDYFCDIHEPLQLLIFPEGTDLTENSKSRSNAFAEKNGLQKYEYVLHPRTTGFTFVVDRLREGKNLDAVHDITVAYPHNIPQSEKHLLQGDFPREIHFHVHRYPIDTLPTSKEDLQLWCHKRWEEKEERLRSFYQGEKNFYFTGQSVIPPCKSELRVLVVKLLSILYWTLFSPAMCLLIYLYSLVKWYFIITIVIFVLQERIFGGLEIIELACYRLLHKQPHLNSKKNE
Experiment: In vitro acyltransferase assay for ALCAT1 inhibitors
Assay type: biochemical
Conditions: 1 μM compound; in vitro enzymatic assay
reported-endpoint: inhibition at 1 µM (%)
Report only the number, with the unit % understood.

Indicate its recorded inhibition at 1 µM; the compound in question is "COc1ccc(F)cc1C(=O)Nc1cccc(-c2nnc(-c3ccco3)o2)c1" 85

Please supply the value of reported inhibition at 1 µM for the item "O=C(Nc1cccc(-c2nnc(-c3ccco3)o2)c1)c1cc([N+](=O)[O-])ccc1F" 66

State its inhibition at 1 µM for this compound: "O=C(Nc1cccc(-c2nnc(-c3ccco3)o2)c1)c1cc(Br)ccc1I" 65

Dear colleague, please send me the reported inhibition at 1 µM for "CCOc1ccc(CC)cc1C(=O)Nc1cc(-c2nnc(-c3ccco3)o2)ccn1" when you can. 98

Give recorded inhibition at 1 µM. "O=C(Nc1cccc(-c2nnc(-c3ccco3)o2)c1)c1ccc2occc2c1" 26

// fetch inhibition at 1 µM given entry "O=C(Nc1cc(-c2nnc(-c3ccco3)o2)ccc1F)c1cc(Cl)ccc1OCC(F)F" 96

Please indicate inhibition at 1 µM recorded for "O=C(Nc1cccc(-c2nnc(-c3ccoc3)o2)c1)c1ccccc1F" 13

For "Cc1ccc(OCCF)c(C(=O)Nc2cc(-c3nnc(-c4ccco4)o3)ccc2F)c1" , write its inhibition at 1 µM. 94

---

Target: ALCAT1 (Homo sapiens (Human))
Experiment: In vitro acyltransferase assay for ALCAT1 inhibitors
Assay type: biochemical
Details: ALCAT1 enzyme activity; triplicates, GraphPad; read-out: IC50
Description: The human ALCAT1 protein were expressed in Spodoptera frugiperda (Sf9) insect cells by using a Bac-to-Bac baculovirus expression system (Invitrogen) according to the manufacturer's instruction. […] The membrane fraction was resuspended in enzymatic buffer that contain 10% glycerol, quantified for protein concentration, aliquoted, and stored at −80° C. […] Compound inhibitors for ALCAT1 enzyme were analyzed by an in vitro enzymatic assay as detailed above. […]
reported-endpoint: IC50 (nM)
Give the value in nM but do not write nM after it.

State, in one line, measured IC50 of "CCCOc1ccc(F)cc1C(=O)Nc1cc(-c2nnc(-c3ccco3)o2)ccc1F" 66

Please report IC50 for the following compound: "COc1ccc(C)cc1C(=O)Nc1cc(-c2nnc(-c3ccco3)o2)ccc1F" 30

Identify measured IC50 corresponding to "O=C(Nc1cc(-c2nnc(-c3ccco3)o2)ccc1F)c1ccccc1F" 47

---

Answer each item with its documented pIC50.
Target: ALCAT1 (Homo sapiens (Human), UniProt Q6UWP7)
Assay: In vitro acyltransferase assay for ALCAT1 inhibitors
Type: biochemical
Settings: ALCAT1 enzyme activity; triplicates, GraphPad; read-out: IC50
Kindly note that pIC50 refers to -log10 of the concentration in mol/L and answer with the value alone.

# return recorded pIC50 for entry "O=C(Nc1cccc(-c2nnc(-c3ccco3)o2)c1)c1cccnc1F" 5.41

Quote pIC50 reported for "Cc1ccc(OCC(F)(F)F)c(C(=O)Nc2cc(-c3nnc(-c4ccco4)o3)ccc2F)c1" please. 7.21

Determine its reported pIC50: "O=C(Nc1cccc(-c2cnc(-c3ccco3)o2)c1)c1ccccc1F" 5.77

Please report pIC50 for the following molecule: "O=C(Nc1cccc(-c2nnc(-c3ccco3)o2)c1F)c1ccccc1F" 6.96

Give reported pIC50 value for "COc1ccc(OC)c(C(=O)Nc2cccc(-c3nnc(-c4ccco4)o3)c2)c1" 6.46

# return recorded pIC50 for input "CCOc1ccccc1C(=O)Nc1cccc(-c2nnc(-c3ccco3)o2)c1" 6.96

# return recorded pIC50 for entry "O=C(Nc1cccc(-c2nnc(-c3ccco3)o2)c1)c1cccc(Cl)c1F" 6.41

Determine from records and report pIC50 for "Cc1cccc(C(=O)Nc2cccc(-c3nnc(-c4ccco4)o3)c2)c1F" 6.54

Return pIC50 (reported value) for this molecule: "O=C(Nc1cccc(-c2nnc(-c3ccco3)o2)c1)c1cc(F)ccc1OCC(F)(F)F" 7.14

---

Biological target: UniProtKB Q6UWP7
Test: In vitro acyltransferase assay for ALCAT1 inhibitors
Type: biochemical
Conditions: 1 μM compound; in vitro enzymatic assay
Classification field: criterion met = % inh @ 1 μM at or over 60%; criterion not met = % inh @ 1 μM under 60%.

Hi, just wondering whether "COc1ccc(F)c(C(=O)Nc2cccc(-c3nnc(-c4ccco4)o3)c2)c1" shows % inh @ 1 μM of 60% or higher. criterion met

Evaluate "O=C(Nc1cc(F)cc(-c2nnc(-c3ccco3)o2)c1)c1ccccc1F" : % inh @ 1 μM at minimum 60%? criterion not met

Is % inh @ 1 μM for "Cc1ccc(OCCF)c(C(=O)Nc2cc(-c3nnc(-c4ccco4)o3)ccc2F)c1" at or above 60%? criterion met

Check this compound for % inh @ 1 μM at or above 60%: "CCCOc1ccc(C)cc1C(=O)Nc1cccc(-c2nnc(-c3ccco3)o2)c1" criterion met

Dear colleague, could you confirm whether "O=C(Nc1cncc(-c2nnc(-c3ccco3)o2)c1)c1ccccc1F" has % inh @ 1 μM at or above 60%? criterion not met

Does the reported % inh @ 1 μM for "O=C(Nc1cccc(-c2nnc(-c3cncs3)o2)c1)c1ccccc1F" fall at or above the 60% mark? criterion not met

Tell me whether % inh @ 1 μM is at least 60% here: "O=C(Nc1cccc(-c2nnc(-c3ccco3)o2)c1)c1ccccc1OCC(F)(F)F" criterion met

Does "Cc1ccc(F)c(NC(=O)c2cccc(-c3nnc(-c4ccco4)o3)c2)c1" have a reported % inh @ 1 μM of at least 60%? criterion met

---

Molecular target: ALCAT1 (Homo sapiens (Human), UniProt Q6UWP7)
Assay: In vitro acyltransferase assay for ALCAT1 inhibitors
Assay type: biochemical
Conditions: 10 μM compound; in vitro enzymatic assay
reported-endpoint: inhibition at 10 µM (%)
Numeric answer only, unit % assumed.

Name the value of inhibition at 10 µM reported for O=C(Nc1cc(-c2nnc(-c3ccco3)o2)ccc1Cl)c1ccccc1F [Compound 23] when tested on ALCAT1 (Homo sapiens (Human), UniProt Q6UWP7). 89

Tell me inhibition at 10 µM of O=C(Nc1cccc(-c2nnc(-c3ccco3)o2)n1)c1ccccc1F [Compound 53] when tested on ALCAT1 (Homo sapiens (Human), UniProt Q6UWP7). 90

Find inhibition at 10 µM for O=C(Nc1cccc(-c2nnc(-c3ccco3)o2)c1)c1cccc([N+](=O)[O-])c1 [Compound 87] on ALCAT1 (Homo sapiens (Human), UniProt Q6UWP7) and write it down. 62

State inhibition at 10 µM (ALCAT1 (Homo sapiens (Human), UniProt Q6UWP7)) of CCCOc1ccc(F)cc1C(=O)Nc1cc(-c2nnc(-c3ccco3)o2)ccc1F [Compound 210] . 97

Report inhibition at 10 µM on ALCAT1 (Homo sapiens (Human), UniProt Q6UWP7) for this entry: Cc1cccc(C(=O)Nc2cccc(-c3nnc(-c4ccco4)o3)c2)c1F [Compound 190] 100

---

Biological target: ALCAT1 (Homo sapiens (Human), UniProt Q6UWP7)
Test: In vitro acyltransferase assay for ALCAT1 inhibitors
Type: biochemical
Settings: 10 μM compound; in vitro enzymatic assay
reported-endpoint: inhibition at 10 µM (%)
Give your result in % as a bare value.

Provide only the value of recorded inhibition at 10 µM for Nc1ccccc1C(=O)Nc1cccc(-c2nnc(-c3ccco3)o2)c1 [Compound 77] 21

Report inhibition at 10 µM for O=C(Nc1cccc(-c2nnc(-c3ccco3)o2)c1)c1cc(Br)ccc1I [Compound 141] 67

Query inhibition at 10 µM for COc1ccccc1C(=O)Nc1cc(-c2nnc(-c3ccco3)o2)ccc1F [Compound 128] 100

Name the recorded inhibition at 10 µM of the item COc1ccc(Cl)cc1C(=O)Nc1cccc(-c2nnc(-c3ccco3)o2)c1 [Compound 124] in your answer. 100

Using the record for O=C(Nc1cccc(-c2nnc(-c3ccco3)o2)c1)c1ccc([N+](=O)[O-])cc1 [Compound 85] , state its measured inhibition at 10 µM. 3

Look up inhibition at 10 µM of COc1cccc(OC)c1C(=O)Nc1cccc(-c2nnc(-c3ccco3)o2)c1 [Compound 170] and report it. 27

Give recorded inhibition at 10 µM. O=C(Nc1cccc(-c2nnc(-c3ccco3)o2)c1)c1ccccc1Br [Compound 5] 39

Retrieve inhibition at 10 µM measured for COc1ccc(I)cc1C(=O)Nc1cccc(-c2nnc(-c3ccco3)o2)c1 [Compound 113] and print it. 94

For the compound Cc1ccc(F)c(C(=O)Nc2cccc(-c3nnc(-c4ccco4)o3)c2)c1 [Compound 176] , give its reported inhibition at 10 µM. 100

---

Would you mind telling me the reported inhibition at 1 µM of each entry?
Biological target: ALCAT1 (Homo sapiens (Human), UniProt Q6UWP7)
Assay: In vitro acyltransferase assay for ALCAT1 inhibitors
Assay type: biochemical
Details: 1 μM compound; in vitro enzymatic assay
Answer in %, number only, no unit symbol.

Recall and state the measured inhibition at 1 µM for CCOc1ccc(CC)cc1C(=O)Nc1cccc(-c2nnc(-c3ccco3)o2)c1 [Compound 219] . 99

Look up and state reported inhibition at 1 µM for COc1ccc(C(=O)O)cc1C(=O)Nc1cccc(-c2nnc(-c3ccco3)o2)c1 [Compound 114] 36

Report measured inhibition at 1 µM; entry is O=C(Nc1cccc(-c2nnc(-c3ccco3)o2)c1)c1cccc2c1OCCC2 [Compound 296] 55

// Input: O=C(Nc1cccc(-c2nnc(-c3cccs3)o2)c1)c1ccccc1F [Compound 15] . Output its inhibition at 1 µM only. 20
